# assay.remarks: Plasma concentrations and pharmacokinetic parameters after topical ocular, subcutaneous and intravitreal administration
# Format: in vivo, New Zealand White rabbits
# condition.label: New Zealand White, rabbit, plasma, topical, 1.2 mg/eye, topical ocular 1.2 mg/eye (~0.7 mg/kg/dose); 2.0 hr
Where a name gives a salt, the structure may show the parent alone.
readout.kind: concentration at 2 h (ng/mL)
Give bare numbers, in ng/mL.

QUERY: Assign concentration at 2 h to the following record: COC(=O)N[C@@H](Cc1ccccc1)C(=O)N[C@@H](Cc1ccc(NS(=O)(=O)O)cc1)c1csc(-c2cccs2)n1 [Compound 1 sodium salt]
RESULT: 1.14

###

# assay.remarks: Ocular tissue concentrations (aqueous humor, vitreous humor, iris, retina, choroid, cornea) after topical ocular, subcutaneous and intravitreal administration
# Type: in vivo, New Zealand White rabbits
# condition.label: New Zealand White, rabbit, retina homogenate, other: intravitreal, 2.5 mg/eye, Retina homogenate, 72 hr, OS; sodium salt, intravitreal 2.5 mg/eye, Group 4; read-out: Retina Conc. (ng/mL) OS
# Experimental: To measure the concentration of Compound 1 in plasma and ocular tissues following topical ocular, subcutaneous, and intravitreal administration, New Zealand White rabbits were administered Compound 1, and plasma and ocular samples were collected at pre-determined time points. […] Ocular tissue samples from both eyes of each animal were collected and weights were recorded. Plasma and ocular tissue sample concentrations of Compound 1 were determined by LC-MS/MS. […]
readout.kind: concentration at 72 h (ng/mL)
One number for each entry, in ng/mL.

QUERY: Check the records and state concentration at 72 h for COC(=O)N[C@@H](Cc1ccccc1)C(=O)N[C@@H](Cc1ccc(NS(=O)(=O)O)cc1)c1csc(-c2cccs2)n1
RESULT: 370

###

# test.target: HPTP-β (Homo sapiens (Human), UniProt P23467)
# Sequence (P23467 23-1997): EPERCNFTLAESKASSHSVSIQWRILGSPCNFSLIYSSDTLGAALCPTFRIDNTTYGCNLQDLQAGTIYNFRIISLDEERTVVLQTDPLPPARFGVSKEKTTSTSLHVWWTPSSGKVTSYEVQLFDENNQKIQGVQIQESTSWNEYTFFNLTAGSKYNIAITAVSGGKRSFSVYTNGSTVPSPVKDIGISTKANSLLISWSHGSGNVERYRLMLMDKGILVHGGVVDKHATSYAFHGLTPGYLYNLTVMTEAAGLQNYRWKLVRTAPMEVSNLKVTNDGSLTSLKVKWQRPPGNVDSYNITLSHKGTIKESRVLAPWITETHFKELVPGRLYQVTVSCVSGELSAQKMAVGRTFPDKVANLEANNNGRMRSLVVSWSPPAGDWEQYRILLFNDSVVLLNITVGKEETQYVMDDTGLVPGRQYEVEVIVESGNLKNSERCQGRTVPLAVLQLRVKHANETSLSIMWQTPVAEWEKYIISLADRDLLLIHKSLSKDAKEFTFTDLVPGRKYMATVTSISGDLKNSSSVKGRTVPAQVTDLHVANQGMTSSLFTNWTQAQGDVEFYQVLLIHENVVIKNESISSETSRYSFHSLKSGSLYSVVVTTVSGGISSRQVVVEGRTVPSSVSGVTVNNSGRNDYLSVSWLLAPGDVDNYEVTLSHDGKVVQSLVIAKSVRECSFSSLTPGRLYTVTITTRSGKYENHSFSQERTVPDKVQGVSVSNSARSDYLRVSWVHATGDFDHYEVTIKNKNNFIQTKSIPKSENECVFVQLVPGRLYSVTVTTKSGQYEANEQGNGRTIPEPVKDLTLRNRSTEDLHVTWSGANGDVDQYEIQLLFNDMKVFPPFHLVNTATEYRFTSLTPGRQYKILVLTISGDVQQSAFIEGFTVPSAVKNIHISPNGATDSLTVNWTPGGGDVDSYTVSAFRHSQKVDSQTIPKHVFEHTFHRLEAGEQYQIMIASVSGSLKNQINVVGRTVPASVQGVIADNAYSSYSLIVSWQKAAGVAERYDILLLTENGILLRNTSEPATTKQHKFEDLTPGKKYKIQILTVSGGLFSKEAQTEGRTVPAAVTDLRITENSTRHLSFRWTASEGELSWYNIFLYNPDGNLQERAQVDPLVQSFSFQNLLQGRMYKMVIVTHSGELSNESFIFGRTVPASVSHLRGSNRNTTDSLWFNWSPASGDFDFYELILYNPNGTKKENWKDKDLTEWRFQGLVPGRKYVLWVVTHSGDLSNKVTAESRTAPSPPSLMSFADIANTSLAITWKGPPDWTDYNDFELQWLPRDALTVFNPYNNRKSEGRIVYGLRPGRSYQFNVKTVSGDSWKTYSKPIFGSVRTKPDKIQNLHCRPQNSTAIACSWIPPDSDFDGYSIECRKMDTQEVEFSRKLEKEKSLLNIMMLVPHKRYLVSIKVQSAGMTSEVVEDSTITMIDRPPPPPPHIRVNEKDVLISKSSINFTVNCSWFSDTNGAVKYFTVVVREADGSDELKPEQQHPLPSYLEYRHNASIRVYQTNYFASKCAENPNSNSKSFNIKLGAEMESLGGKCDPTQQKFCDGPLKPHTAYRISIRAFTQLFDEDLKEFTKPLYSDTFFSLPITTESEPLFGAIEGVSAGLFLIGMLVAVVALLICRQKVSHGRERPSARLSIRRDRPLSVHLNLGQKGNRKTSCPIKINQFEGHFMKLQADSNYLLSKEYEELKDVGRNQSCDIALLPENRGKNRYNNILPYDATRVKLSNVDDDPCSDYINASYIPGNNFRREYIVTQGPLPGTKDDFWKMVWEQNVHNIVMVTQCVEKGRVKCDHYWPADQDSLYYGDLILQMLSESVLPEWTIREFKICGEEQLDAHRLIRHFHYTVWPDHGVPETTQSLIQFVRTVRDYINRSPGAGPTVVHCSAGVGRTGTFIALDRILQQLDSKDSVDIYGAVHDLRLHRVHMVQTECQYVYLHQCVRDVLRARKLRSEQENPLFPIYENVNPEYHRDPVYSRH
Please provide measured pIC50 for the entries that follow.
Give bare numbers, as −log10 of the molar value.

Sample records with pIC50:
smi | pIC50
CCc1csc([C@H](Cc2ccc(NS(=O)(=O)O)cc2)NC(=O)[C@H](CC(C)C)NC(=O)OC(C)(C)C)n1 | 8.22
CCc1csc([C@H](Cc2ccc(NS(=O)(=O)O)cc2)NC(=O)[C@H](CNC(=O)OC(C)(C)C)Cc2ccccc2)n1 | 7.51

QUERY: Provide pIC50 value for the following compound: CC(C)(C)OC(=O)N[C@@H](Cc1ccc(NS(=O)(=O)O)cc1)c1csc(OC(=O)C(C)(C)C)n1
RESULT: 6.26

###

# assay.remarks: Ocular tissue concentrations (aqueous humor, vitreous humor, iris, retina, choroid, cornea) after topical ocular, subcutaneous and intravitreal administration
# Assay type: in vivo, New Zealand White rabbits
# condition.label: New Zealand White, rabbit, vitreous humor, other: intravitreal, 2.5 mg per eye, Group 4 intravitreal 2.5 mg per eye; 48 hr; read-out: vitreous humor Average Conc.
Where a name gives a salt, the structure may show the parent alone.
readout.kind: concentration at 48 h (ng/g)
Give bare numbers, in ng/g.

QUERY: Fill in concentration at 48 h for record COC(=O)N[C@@H](Cc1ccccc1)C(=O)N[C@@H](Cc1ccc(NS(=O)(=O)O)cc1)c1csc(-c2cccs2)n1 [Compound 1 sodium salt]
RESULT: 82000

###

# assay.remarks: Ocular tissue concentrations (aqueous humor, vitreous humor, iris, retina, choroid, cornea) after topical ocular, subcutaneous and intravitreal administration
# Type: in vivo, New Zealand White rabbits
# condition.label: New Zealand White, rabbit, iris homogenate, subcutaneous, 5 mg/kg/dose, TABLE 16: Iris homogenate, 4 hr, OS; free acid, subcutaneous 5 mg/kg/dose, Group 3; read-out: Iris Conc. (ng/mL) OS
readout.kind: concentration at 4 h

QUERY: Return reported concentration at 4 h. Input molecule: COC(=O)N[C@@H](Cc1ccccc1)C(=O)N[C@@H](Cc1ccc(NS(=O)(=O)O)cc1)c1csc(-c2cccs2)n1
RESULT: 1.54 ng/mL
